System: SF-268 CNS
Assay info: NCI tumour cell line growth inhibition, 48 h; in the data active means GI50 below about 0.43 µM; inactive means the rest
Field 'call' accepts 1.0 (active), 0.0 (inactive)

Some solved cases for reference:
How did this test come out for C[N+](C)(CCCCCC[N+](C)(C)CCCN1C(=O)c2cc3ccccc3cc2C1=O)CCCN1C(=O)c2ccccc2C1=O ?
0.0

How did this test come out for O=C([CH-]C(=O)c1ccccc1)c1ccccc1.O=C([CH-]C(=O)c1ccccc1)c1ccccc1.[Nd+3].[OH-].[OH3+] ?
0.0

How did this test come out for CN(C)CCCNC(=O)c1cc(NC(=O)c2cc(NC(=O)c3cc(NC(=O)CCc4c[nH]c5ccccc45)cn3C)cn2C)cn1C ?
0.0

***
How did this test come out for CCN(CC)CCCCCCCNc1c2ccc(Cl)cc2nc2ccc(OC)cc12 ?
0.0

How did this test come out for Cc1cc(S(=O)(=O)Nc2nnc(-c3ccccc3)c(-c3ccccc3)n2)c(SCc2ccccc2)cc1Cl ?
0.0

How did this test come out for Nc1ccccc1C#C/C=C\C#Cc1ccc(Cl)cc1Cl ?
0.0

How did this test come out for O=C(Nc1ccc(Cl)cc1)c1cc2ccccc2cc1O ?
0.0

How did this test come out for CC1(C)N=C(N)N=C(N)N1c1cc(Cl)ccc1Cl ?
0.0

How did this test come out for CC[N+](CC)(CC)CCCn1c2c(c3ccccc3c1=O)C(=O)c1ccccc1-2 ?
0.0

How did this test come out for COc1nc(C)cc2c(=O)n(-c3ccccc3)n(CCCN3CCN(c4ccc(Cl)cc4)CC3)c(=O)c12 ?
0.0

How did this test come out for Cc1ccc2c(=O)c3cccc(CC(=O)O)c3oc2c1C ?
0.0

How did this test come out for O=C1c2ccccc2-c2c1c1ccccc1c(=O)n2CCNCCNCCn1c2c(c3ccccc3c1=O)C(=O)c1ccccc1-2 ?
1.0

How did this test come out for S=C(N/N=C/c1ccccn1)Nc1ccccn1 ?
0.0

How did this test come out for COc1ccc2[nH]c(Cl)c(/C=C3/C(=O)N(C)c4ccccc43)c2c1 ?
0.0

How did this test come out for O=C1C=Cc2ccccc2/C1=C/c1[nH]c(=O)[nH]c1O ?
0.0

How did this test come out for COc1cc(/C=C/C(=O)c2ccc(Cl)cc2)ccc1OS(=O)(=O)c1ccc(C)cc1 ?
0.0

How did this test come out for C=C(CN1CCc2ccccc2C1)c1ccc(C(=O)Nc2ccc(N)cc2)cc1 ?
0.0

* * *

Here, each record is paired with measured TGI data.
Test system: 786-0 renal
Assay info: NCI tumour cell line growth inhibition, 48 h

Here are 6 compounds together with their reported answers.
Provide TGI value for the following compound: C/C=C(/C)C(=O)O[C@H]1C(C)=C[C@]23C(=O)[C@@H](C=C(COC(C)=O)[C@@H](O)[C@]12O)[C@H]1[C@@H](C[C@H]3C)[C@@]1(C)OC(=O)/C(C)=C\C
8.93 µM

Provide TGI value for the following compound: COC(=O)c1ccc(N=NN(C)CO)cc1
> 100 µM

Provide TGI value for the following compound: CC1(C)OCC(C2OC(N3O[C@H](CI)C[C@@H]3c3ccccc3)C3OC(C)(C)OC23)O1 (some centres not stated)
> 100 µM

Provide TGI value for the following compound: Cc1[nH]c(/C=C2\C(=O)Nc3ccc(F)cc32)c(C)c1C(=O)NC[C@H](O)CN1CCOCC1
> 10 µM

Provide TGI value for the following compound: COc1ccc(SC(C)(SC)c2ccccn2)c(OC)n1 (configuration not stated)
> 100 µM

Provide TGI value for the following compound: CC1OC(O[C@H]2CC[C@]3(C)[C@H]4CC=C5[C@@H]6[C@@H](C)[C@H](C)CC[C@]6(C(=O)O)CC[C@@]5(C(=O)O)[C@]4(C)CC[C@H]3C2(C)C)C(O)C(O)C1O (some centres not stated)
> 75 µM

Turning to the following compound.
Provide TGI value for the following compound: Cc1cc(Cl)ccc1N=NC(=O)NNc1ccc(Cl)cc1C
29.9 µM
